This collection of values is drawn from patent US20240270821A1.

# pEC50 listing for each entry below
# measured_on: hGLP-1R (Homo sapiens, UniProt P43220)
# Sequence (P43220 24-463): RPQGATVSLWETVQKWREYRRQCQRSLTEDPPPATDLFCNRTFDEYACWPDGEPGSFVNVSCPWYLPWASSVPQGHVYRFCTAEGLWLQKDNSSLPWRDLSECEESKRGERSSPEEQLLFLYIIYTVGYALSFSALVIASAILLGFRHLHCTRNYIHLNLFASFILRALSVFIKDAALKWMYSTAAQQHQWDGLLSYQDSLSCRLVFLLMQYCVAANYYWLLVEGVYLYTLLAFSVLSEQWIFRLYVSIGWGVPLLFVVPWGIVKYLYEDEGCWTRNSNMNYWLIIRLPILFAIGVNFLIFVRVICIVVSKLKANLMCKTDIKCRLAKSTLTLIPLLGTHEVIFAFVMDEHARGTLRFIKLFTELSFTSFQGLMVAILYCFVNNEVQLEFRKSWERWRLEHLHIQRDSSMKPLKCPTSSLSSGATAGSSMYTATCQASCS
# protocol_text: Functional cAMP activity in the presence of 1% HSA
# Format: cell-based
# conditions: read-out: cAMP Rel EC50, hGLP-1R
pEC50: −log10 of the molar value. Starred links: 1 amine or outer side, 2 acyl side, 3 side chain; linkers in the order of their positions; H or OH if unused. Non-standard residues stand in square brackets, D forms with d. Groups on a side chain read outwards from the residue. No end group written: not given here. *: point of attachment. C18 diacid = O=C(O)CCCCCCCCCCCCCCCCC(=O)*; αMePhe(2-F) = C[C@](N)(Cc1ccccc1F)C(=O)O; γGlu = O=C(O)[C@H](CCC(=O)[*:2])N[*:1]; αMe4Pal = C[C@](N)(Cc1ccncc1)C(=O)O; αMeY = C[C@](N)(Cc1ccc(O)cc1)C(=O)O; 4Pal = N[C@@H](Cc1ccncc1)C(=O)O; αMeL = CC(C)C[C@](C)(N)C(=O)O; αMeS = C[C@](N)(CO)C(=O)O; Orn = NCCC[C@H](N)C(=O)O; AEEA = NCCOCCOCC(=O)O; Aib = CC(C)(N)C(=O)O

substance: Y[Aib]QGTFTSDFS[Orn][αMeL]LDKK([AEEA-γGlu-C18 diacid])AQ[Aib]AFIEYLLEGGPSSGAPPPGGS-NH2 [Example 62]
pEC50: 6.52
//
substance: H-Y[Aib]QGTFTSDFS[Orn][αMeL]LDKK([γGlu-γGlu-C18 diacid])AQ[Aib]AFIEYLLEGGPSS[Aib]APPPGGS-NH2 [Example 770]
pEC50: 6.62
//
substance: H-Y[Aib]QGT[αMePhe(2-F)]TSD[4Pal]SILLDKK([γGlu-γGlu-C18 diacid])AQ[Aib]AFIEYLEEGGPSSGAPPPSGAGE-NH2 [Example 620]
pEC50: 7.04
//
substance: H-Y[Aib]QGTFTSD[4Pal]S[Orn][αMeL]LD[Orn]K([γGlu-γGlu-C18 diacid])AQ[αMe4Pal]AFIE[αMe4Pal]LIE[Aib]GPSSGEPPPSGS-NH2 [Example 991]
pEC50: 6.50
//
substance: H-Y[Aib]QGT[αMePhe(2-F)]TSD[4Pal][αMeS]I[αMeL]LD[Orn]K([γGlu-γGlu-C18 diacid])AQ[Aib]NFI[dE][αMeY]LIEGGPSSGEPEPSEG-NH2 [Example 473]
pEC50: 7.94

* * *

# measured_on: hGLP-1R (Homo sapiens)
# protocol_text: Functional cAMP activation in the presence of 0.1% casein (no HSA);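 note: intracellular cAMP rise after 30 min at 37 °C read by HTRF, normalized between buffer only (0%) and maximal control ligand (100%), four-parameter variable-slope fit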
# Assay type: cell-based
# conditions: in the presence of 0.1% casein (no HSA); geometric mean; read-out: Relative cAMP EC50, hGLP-1R
pEC50: −log10 of the molar value. Starred links: 1 amine or outer side, 2 acyl side, 3 side chain; linkers in the order of their positions; H or OH if unused. Non-standard residues stand in square brackets, D forms with d. Groups on a side chain read outwards from the residue. *: point of attachment. C18 diacid = O=C(O)CCCCCCCCCCCCCCCCC(=O)*; γGlu = O=C(O)[C@H](CCC(=O)[*:2])N[*:1]; αMe4Pal = C[C@](N)(Cc1ccncc1)C(=O)O; αMeY = C[C@](N)(Cc1ccc(O)cc1)C(=O)O; 4Pal = N[C@@H](Cc1ccncc1)C(=O)O; αMeL = CC(C)C[C@](C)(N)C(=O)O; Orn = NCCC[C@H](N)C(=O)O; AEEA = NCCOCCOCC(=O)O; Aib = CC(C)(N)C(=O)O
Tick rule met if pEC50 is 9 or greater. Tick rule not met if pEC50 is less than 9.

substance: H-Y[Aib]QGTFTSDFS[Orn][αMeL]LDKK([AEEA-γGlu-C18 diacid])AQ[Aib]AFIEYLLE[Aib]GPSSGAPPPSGE-NH2 [Example 110]
answer_label: rule not met

substance: H-Y[Aib]QGTFTSDFSK[αMeL]LDKK([AEEA-γGlu-C18 diacid])AQ[Aib]AFIE[αMe4Pal]LIE[Aib]GPSSGAPPPSGS-NH2 [Example 912]
answer_label: rule met

substance: H-Y[Aib]QGTFTSD[4Pal]S[Orn][αMeL]LD[Orn]K([γGlu-γGlu-C18 diacid])AQ[Aib]AFIE[αMeY]LLEGGPSSGAPPPSGSEE-NH2 [Example 1064]
answer_label: rule not met

substance: H-Y[Aib]QGTFTSDFSK[αMeL]LDKK([AEEA-γGlu-C18 diacid])AQ[Aib]AFIEYLLEGGPSSGAPPPSGS-NH2 [Example 141]
answer_label: rule not met
